# target: RhlR (Pseudomonas aeruginosa, UniProt P54292)
# Construct: expressed in transfected cells; host or cells: E. coli JLD271 (K-12 ΔlacX74 sdiA271::Cam) carrying pJN105-R2 (RhlR expression) and pSC11-rhlI (rhlI'-lacZ reporter)
# Sequence (P54292 whole entry): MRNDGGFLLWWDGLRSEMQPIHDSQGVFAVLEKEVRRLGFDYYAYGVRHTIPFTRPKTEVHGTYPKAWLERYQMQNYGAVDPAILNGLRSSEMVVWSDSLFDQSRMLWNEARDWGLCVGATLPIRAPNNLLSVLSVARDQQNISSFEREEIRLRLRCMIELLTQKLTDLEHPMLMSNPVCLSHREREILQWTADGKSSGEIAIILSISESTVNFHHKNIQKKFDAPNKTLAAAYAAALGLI
# procedure_details: E. coli (JLD271) RhlR reporter antagonism assay, in competition with BHL
# Type: cell-based
# condition_summary: IC50, E. coli JLD271 RhlR reporter; against 10 μM BHL
pIC50: −log10 of the molar value.
Each entry falls in a class defined on pIC50; the bands are LOW (below 3), MID (3 to below 4), HIGH (4 or more)

- O=C(Cc1ccc(C(F)(F)F)cc1)N[C@H]1CCOC1=O [Compound C20, 4-CF3 PHL, reference compound]: HIGH
- O=C1OCC[C@@H]1NS(=O)(=O)c1ccc(Cl)cc1Cl: LOW
- O=C1OCC[C@@H]1NS(=O)(=O)c1c(Cl)cccc1Cl: LOW
- O=C1OCC[C@@H]1NS(=O)(=O)c1ccc(Cl)cc1: MID
- O=C1OCC[C@@H]1NS(=O)(=O)c1cc(Cl)c(F)c(Cl)c1: HIGH
- O=C1OCC[C@@H]1NS(=O)(=O)c1ccccc1: MID
- O=C1OCC[C@@H]1NS(=O)(=O)c1ccc(C(F)(F)F)cc1: MID
- O=C1OCC[C@@H]1NS(=O)(=O)c1cccc(Cl)c1Cl: HIGH
- O=C1OCC[C@@H]1NS(=O)(=O)c1ccc(F)c(Cl)c1: HIGH
- Cc1ccc(CC(=O)N[C@H]2CCOC2=O)cc1 [Compound C19, 4-Me PHL, reference compound]: HIGH
- O=C1OCC[C@@H]1NS(=O)(=O)c1cccc(Cl)c1: MID
- O=C1OCC[C@@H]1NS(=O)(=O)Cc1ccc(Br)cc1: MID
- O=C1OCC[C@@H]1NS(=O)(=O)Cc1ccc([N+](=O)[O-])cc1: LOW
- O=C1OCC[C@@H]1NS(=O)(=O)Cc1ccc(Cl)cc1: MID

---

# target: RhlR (Pseudomonas aeruginosa, UniProt P54292)
# Construct: expressed in transfected cells; host or cells: E. coli JLD271 (K-12 ΔlacX74 sdiA271::Cam) carrying pJN105-R2 (RhlR expression) and pSC11-rhlI (rhlI'-lacZ reporter)
# procedure_details: E. coli (JLD271) RhlR reporter antagonism assay, in competition with BHL
# Format: cell-based
# condition_summary: IC50, E. coli JLD271 RhlR reporter; against 10 μM BHL
pIC50: −log10 of the molar value.
result_type: pIC50

* O=C1OCC[C@@H]1NS(=O)(=O)Cc1ccc(Cl)c(Cl)c1 | 3.69
* Cc1cccc(S(=O)(=O)N[C@H]2CCOC2=O)c1 | 3.90
* O=C1OCC[C@@H]1NS(=O)(=O)c1ccc(Cl)c(C(F)(F)F)c1 | 4.03
* COc1cccc(S(=O)(=O)N[C@H]2CCOC2=O)c1 | 3.68
* O=C1OCC[C@@H]1NS(=O)(=O)Cc1cccc(Cl)c1 | 3.90
* Cc1ccc(CS(=O)(=O)N[C@H]2CCOC2=O)cc1 | 3.04
* O=C1OCC[C@@H]1NS(=O)(=O)c1ccc(F)c(C(F)(F)F)c1 | 4.16
* O=C1OCC[C@@H]1NS(=O)(=O)c1ccc(F)cc1 | 3.52
* O=C1OCC[C@@H]1NS(=O)(=O)c1ccccc1Cl | 3.26
